# System Under Test: T1, B. subtilis DnaG primase (Bacillus subtilis, UniProt P05096 1-603, limits assumed)
# T1 construct: Recombinant
# T1 sequence (looked up): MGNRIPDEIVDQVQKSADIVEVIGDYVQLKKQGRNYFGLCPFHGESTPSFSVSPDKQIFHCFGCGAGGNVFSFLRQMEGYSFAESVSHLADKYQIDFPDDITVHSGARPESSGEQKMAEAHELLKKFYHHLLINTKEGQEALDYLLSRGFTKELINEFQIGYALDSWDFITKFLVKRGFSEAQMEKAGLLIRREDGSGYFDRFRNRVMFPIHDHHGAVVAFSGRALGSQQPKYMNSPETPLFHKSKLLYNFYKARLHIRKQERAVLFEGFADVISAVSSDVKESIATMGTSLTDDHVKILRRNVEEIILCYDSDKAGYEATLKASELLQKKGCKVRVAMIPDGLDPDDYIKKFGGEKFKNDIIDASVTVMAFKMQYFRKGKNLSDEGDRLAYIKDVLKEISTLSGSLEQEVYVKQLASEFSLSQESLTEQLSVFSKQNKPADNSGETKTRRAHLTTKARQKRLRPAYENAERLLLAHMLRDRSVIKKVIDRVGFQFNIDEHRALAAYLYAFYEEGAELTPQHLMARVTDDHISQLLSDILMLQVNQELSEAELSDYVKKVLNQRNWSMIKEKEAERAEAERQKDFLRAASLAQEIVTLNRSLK
# Protocol Text: native gel shift assay, 10 ug G40P construct with 10 ug primase
Recorded Metric: binding result

* G40P N-terminal fragment N171 (other, Contains only the N-globe and α-hairpin domains; Limits inferred from the name; Behaved like a monomer in gel filtration) MNPEEKTVMLYNEYAEQAVLGSILTEPELIKECPLTPEHFSPGKHFNIYFTMQDLDRKGQSVDFTSIAARVGEKLPQLGGFGYLTELAASVASTTTFKQHCQTVSEYFQKRKAISIAQQIIENVNESDDGPVKPIQEAVSELMEIEASGTDDDDGSIDEALVTVYEEIESA | no binding
* G40P N-terminal fragment N149 (other, Contains only the N-globe and α-hairpin domains; Limits inferred from the name; Behaved like a monomer in gel filtration) MNPEEKTVMLYNEYAEQAVLGSILTEPELIKECPLTPEHFSPGKHFNIYFTMQDLDRKGQSVDFTSIAARVGEKLPQLGGFGYLTELAASVASTTTFKQHCQTVSEYFQKRKAISIAQQIIENVNESDDGPVKPIQEAVSELMEIEASG | no binding

Data provenance is patent US20090215075A1.
